molecular target: GalNAc(a1-3)GalNAc; assay: glycan array binding signal (z-score within array); higher = stronger binding; conditions: glycan notation: IUPAC condensed, linker removed
About 410 targets per protein were measured; listed, in parts, are those with the strongest signals and a random draw of the rest.
value_kind: glycan array binding signal (z-score)

>  <binder>
Mg1lysM (Mycosphaerella graminicola) (protein) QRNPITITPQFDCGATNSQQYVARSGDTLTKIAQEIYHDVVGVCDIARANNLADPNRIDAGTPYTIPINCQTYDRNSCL

>  <test_result>
0.308

$$$$
>  <binder>
CBM32-1 (Clostridium perfringens) (protein) MGSSHHHHHHSSGLVPRGSHMASGVEITEGVTVTAKGNTEGNTADLAIDGDLSTYWESSNDYKWIEVDLGGIYELSKIEIFNKDEAVYKYNIYASEDGENFNKIAYKNNDNVSDSNGNVHTIDNVRAGKIRIDVVQNSNSDRVNIAEINVFG

>  <test_result>
-0.173

$$$$
>  <binder>
RSVL (Crotalus atrox), P21963 (protein) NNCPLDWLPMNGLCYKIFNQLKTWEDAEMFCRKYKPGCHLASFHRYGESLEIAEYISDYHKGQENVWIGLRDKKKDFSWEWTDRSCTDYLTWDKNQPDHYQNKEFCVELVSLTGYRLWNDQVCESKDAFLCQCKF

>  <test_result>
4.76

$$$$
>  <binder>
SpnanA (Streptococcus pneumoniae), P62575 (protein) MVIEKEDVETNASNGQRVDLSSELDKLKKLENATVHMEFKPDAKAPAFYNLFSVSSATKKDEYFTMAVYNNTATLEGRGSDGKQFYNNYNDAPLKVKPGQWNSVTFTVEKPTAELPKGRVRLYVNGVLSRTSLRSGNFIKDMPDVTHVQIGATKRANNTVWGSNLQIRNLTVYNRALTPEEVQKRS

>  <test_result>
-0.233

$$$$
